Quick list: logK(lung) per entry.
# ASSAY_OVERVIEW: In-vitro air to lung partition coefficients of the compound, logK(lung) (human/rat)
# CONDITION_PARAMETERS: octanol/water

Solved entries (count: 3):
COC(F)(F)C(Cl)Cl [METHOXYFLURANE]    1.2
[He] [HELIUM]    -1.98
FS(F)(F)(F)(F)F [SULFUR HEXAFLUORIDE]    -2.14

Q: Specify reported logK(lung) for the compound shown: CCOCC [ETHER]
Ans: 1.14

Q: Supply reported logK(lung) belonging to this compound: C#C [ETHYNE]
Ans: -0.06

Q: Report logK(lung) for FCOC(C(F)(F)F)C(F)(F)F [SEVOFLURANE]
Ans: 0.11

Q: Check the records and state logK(lung) for C=CC(=C)Cl [CHLOROPRENE]
Ans: 1.12

Q: Answer with reported logK(lung) of CCC(C)CC
Ans: -0.05

Q: Provide only the value of recorded logK(lung) for CCCCC [PENTANE]
Ans: -0.3

Q: # return recorded logK(lung) for entry FC(F)(F)CCl
Ans: 0.34

Q: Please report logK(lung) for the following compound: ClC=C(Cl)Cl [TRICHLOROETHYLENE]
Ans: 1.15

Q: Give logK(lung) for c1ccccc1 [BENZENE]
Ans: 1.08

Q: Specify reported logK(lung) for the compound shown: Cc1ccccc1C [O-XYLENE]
Ans: 1.94

Q: Using the record for C1CCCCC1 [CYCLOHEXANE] , state its measured logK(lung).
Ans: 0.43

Q: # return recorded logK(lung) for input C=CC=C [BUTADIENE]
Ans: -0.32

Q: Return logK(lung) for the following compound: C1CO1 [OXIRANE]
Ans: 1.79

* * *

# ASSAY_OVERVIEW: In-vivo blood to lung partition coefficients of the compound, logP(lung) in rat
# Type: ADME
Assign criterion met to entries whose logP(lung) meets or exceeds 0.6; assign criterion not met to the rest.

Check out these entries, answers already filled in.
CN(C)CCCN1c2ccccc2CCc2ccc(Cl)cc21    criterion met
O=C1CN=C(c2ccccc2)c2cc([N+](=O)[O-])ccc2N1    criterion not met
OCCOCCN1CCN(C(c2ccccc2)c2ccc(Cl)cc2)CC1 (stereo not drawn) [HYDROXYZINE]    criterion met
CC(=O)Nc1ccc(OCC(O)CNC(C)C)cc1 (stereo not drawn)    criterion not met
CN1CCN(CCCN2c3ccccc3Sc3ccc(C(F)(F)F)cc32)CC1    criterion met
C=CC(=O)O    criterion not met
CN(C)CCCN1c2ccccc2Sc2ccc(Cl)cc21    criterion met
COc1ccc(CCCn2ncc3c2nc(N)n2nc(-c4ccco4)nc32)cc1    criterion met

Q: Can OC(CCN1CCCCC1)(c1ccccc1)C1CCCCC1 (stereo not drawn) be said to have logP(lung) at or above 0.6?
Ans: criterion met

Q: Hi team, for CCc1cc2c(s1)N(C)C(=O)CN=C2c1ccccc1Cl , is the recorded logP(lung) at or above 0.6?
Ans: criterion met

Q: Decide: is the reported value of logP(lung) for COCCc1ccc(OCC(O)CNC(C)C)cc1 (stereo not drawn) equal to or greater than 0.6?
Ans: criterion met

Q: Hello, I need to know if Oc1ccc(O)cc1 [HYDROQUINONE] has measured logP(lung) not below 0.6. Thanks!
Ans: criterion not met

Q: Would you say O=C(CCCN1CCC(O)(c2ccc(Cl)cc2)CC1)c1ccc(F)cc1 shows logP(lung) at minimum 0.6?
Ans: criterion met

* * *

# ASSAY_OVERVIEW: In-vitro blood to lung partition coefficients of the compound, logP(lung) (human/rat)
I'd appreciate it if you marked entries Yes when logP(lung) is lower than -0.04 and No when it is not.

Q: Quick check: does C#C [ETHYNE] have logP(lung) under -0.04?
Ans: No

Q: Find out if reported logP(lung) for ClC(Cl)Cl [CHLOROFORM] is less than -0.04
Ans: No

Q: Identify whether the compound CCC(C)(C)C records logP(lung) below -0.04.
Ans: No

Q: Hi there! Is logP(lung) for C1CO1 [OXIRANE] below -0.04, do you know?
Ans: No

Q: Hello, is logP(lung) of the following compound strictly smaller than -0.04? FCOC(C(F)(F)F)C(F)(F)F [SEVOFLURANE]
Ans: No

* * *

# ASSAY_OVERVIEW: In-vitro air to lung partition coefficients of the compound, logK(lung) (human/rat)
# CONDITION_PARAMETERS: octanol/water
VALUE_TYPE: logK(lung)
Answer field: number only, no words.

Past entries and their recorded results:
C1CC1    -0.51
CCCCCCC    0.4
FC(F)(F)C(Cl)Br (centres undefined)    0.46

Now examine the next entry.
Q: Please indicate logK(lung) recorded for FC(F)OC(F)(F)C(F)Cl (centres undefined)
Ans: 0.56

* * *

# ASSAY_OVERVIEW: In-vivo plasma to lung partition coefficients of the compound, logP(lung) in rat
# Type: ADME, cell-free
Short version: logP(lung) at least 0.08 is rule met, less is rule not met.

CCCCC1(CC)C(=O)NC(=O)NC1=O    rule met
O=c1[nH]c(=O)n(C2CCCO2)cc1F (stereo unspecified)    rule not met
CC(C)NCC(O)COc1cccc2[nH]ccc12 (stereo unspecified)    rule met

Q: Is logP(lung) for CCC1(C)C(=O)NC(=O)NC1=O at or above 0.08?
Ans: rule not met

Q: Given Cc1cccc(OCC(O)CNC(C)C)c1 (stereo unspecified) , state whether its logP(lung) is at least 0.08.
Ans: rule met

* * *

Below: a set of entries, each annotated with reported logK(blood).
# ASSAY_OVERVIEW: In-vitro air to blood partition coefficients of the compound, logK(blood) (human/rat)
# CONDITION_PARAMETERS: octanol/water
Reply with the value as a number alone.

C1CC1    -0.21
CC(C)=O    2.36

Q: Please look at this compound and report its logK(blood): [N-]=[N+]=O [NITROUS OXIDE]
Ans: -0.34

* * *

# ASSAY_OVERVIEW: In-vitro blood to lung partition coefficients of the compound, logP(lung) (human/rat)
# class assignment by measured logP(lung): low bin = under -0.1, mid bin = from -0.1 up to 0.03, high bin = 0.03 and over

Record excerpt, results attached:
CCCCCC    low bin
CCC(C)CC    high bin
[C-]#[O+] [CARBON MONOXIDE]    mid bin

Q: Returns: class label. Input: FC(F)(F)CCl
Ans: high bin

Q: Which band does [N-]=[N+]=O [NITROUS OXIDE] fall in?
Ans: mid bin

Q: In plain terms, what class is FC(F)(F)C(Cl)Br (centres undefined) ?
Ans: low bin

Q: Just checking, what class would you give CCC(C)=O here?
Ans: low bin

Q: Assign a bin to O=O
Ans: mid bin

* * *

# ASSAY_OVERVIEW: In-vitro blood to lung partition coefficients of the compound, logP(lung) (human/rat)
VALUE_TYPE: logP(lung)
Answer using only a numeral; do not append any unit.

Would you please look over these solved cases?
CC(C)=O [ACETONE]    -0.16
CCOCC [ETHER]    0.03
CC [ETHANE]    -0.26
[He] [HELIUM]    0.02

Q: Give recorded logP(lung). CC(C)CO [ISOBUTANOL]
Ans: -0.32

Q: Consider the compound CC(Cl)(Cl)Cl [TRICHLOROETHANE] . State its measured logP(lung).
Ans: 0.04

Q: Item C=C : provide logP(lung)
Ans: 0.28

* * *

# ASSAY_OVERVIEW: In-vitro blood to lung partition coefficients of the compound, logP(lung) (human/rat)
VALUE_TYPE: logP(lung)
I only need the number, thanks.

Q: Identify measured logP(lung) associated with CCCCC
Ans: -0.01

* * *

# ASSAY_OVERVIEW: In-vitro blood to lung partition coefficients of the compound, logP(lung) (human/rat)
Each record here notes measured logP(lung).
Lab note: record the figure alone, no unit after it.

// below: answered molecules
Cc1ccccc1C    0.52
CCCC(C)C    0.29

Q: Give the value of logP(lung) reported for the following: C=CC=C
Ans: -0.41
